Recorded viability, T/C for the following compounds
- Test system: 889142-216-R-J1-PDC complex spheroid viability
- protocol: Anticancer human tumor 889142-216-R-J1-PDC patient-derived bladder carcinoma cell line growth inhibition [POLQ]
- conditionDetails: second compound 0.1 µM; first compound 0.316 µM; hits give low values
resultType: viability, T/C (%)

[[record]]
compound = "CC(C)n1c(=O)n(C)c2cnc3cc(F)c(-c4ccc(OCCCN5CCCCC5)nc4)cc3c21 + Nc1ccc(C#CCN(C(=O)Cc2ncc(C(F)(F)F)cc2C(F)(F)F)c2ccc(F)cc2)nn1"
unittag = "%"
reportedmeasurement = 70.7

[[record]]
compound = "COc1ccc([C@@H](O)c2cc(-c3ncnc4cc(N5CCOCC5)ccc34)c(F)cc2Cl)nn1 + Nc1ccc(C#CCN(C(=O)Cc2ncc(C(F)(F)F)cc2C(F)(F)F)c2ccc(F)cc2)nn1"
unittag = "%"
reportedmeasurement = 80

[[record]]
compound = "COc1cccc2c1C(=O)c1c(O)c3c(c(O)c1C2=O)CC(O)(C(=O)CO)CC3OC1CC(N)C(O)C(C)O1 (stereo not drawn) + COC1C(OC(N)=O)C(O)C(Oc2ccc3c(O)c(NC(=O)c4ccc(O)c(CC=C(C)C)c4)c(=O)oc3c2C)OC1(C)C"
unittag = "%"
reportedmeasurement = 36


====

- Tested on: 889142-216-R-J1-PDC complex spheroid viability
- protocol: Anticancer human tumor 889142-216-R-J1-PDC cell line growth inhibition [POLQ];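 further: spheroids exposed to compounds for seven days; 100% = DMSO vehicle control viability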
- conditionDetails: second compound 0.1 µM; first compound 10 µM; hits give low values
In plain terms, low viability, T/C, meaning strictly below 40%, gives 1 (yes), and everything else gives 0 (no).

[[record]]
compound = "O=c1[nH]cc(F)c(=O)[nH]1 + COC1C(OC(N)=O)C(O)C(Oc2ccc3c(O)c(NC(=O)c4ccc(O)c(CC=C(C)C)c4)c(=O)oc3c2C)OC1(C)C"
subjectoftest = "889142-216-R-J1-PDC complex spheroid viability"
category = "0 (no)"

[[record]]
compound = "CCc1cc2c(N3CCc4c(cc(Cn5ccnc5)cc4-c4cn(C)nc4C(F)(F)F)C3=O)cc(C)nc2c(OC)n1 + Cc1cccc(N(C)C(=O)C2C(O)CCN2c2nc(C)cc(C(F)(F)F)c2C#N)c1"
subjectoftest = "889142-216-R-J1-PDC complex spheroid viability"
category = "0 (no)"

[[record]]
compound = "CC1COCCN1c1cc(C2(O)CC3CCC(C2)O3)c2cnn(-c3ccn[nH]3)c2n1 (stereo unspecified) + Cc1cccc(N(C)C(=O)C2C(O)CCN2c2nc(C)cc(C(F)(F)F)c2C#N)c1"
subjectoftest = "889142-216-R-J1-PDC complex spheroid viability"
category = "1 (yes)"

[[record]]
compound = "Nc1ccn(C2OC(CO)C(O)C2(F)F)c(=O)n1 (stereo unspecified) + Cc1cccc(N(C)C(=O)C2C(O)CCN2c2nc(C)cc(C(F)(F)F)c2C#N)c1"
subjectoftest = "889142-216-R-J1-PDC complex spheroid viability"
category = "1 (yes)"

[[record]]
compound = "CCCS(=O)(=O)Nc1ccc(F)c(C(=O)c2c[nH]c3ncc(-c4ccc(Cl)cc4)cc23)c1F + COC1C(OC(N)=O)C(O)C(Oc2ccc3c(O)c(NC(=O)c4ccc(O)c(CC=C(C)C)c4)c(=O)oc3c2C)OC1(C)C"
subjectoftest = "889142-216-R-J1-PDC complex spheroid viability"
category = "1 (yes)"

[[record]]
compound = "CC1COCCN1c1cc(C2(O)CC3CCC(C2)O3)c2cnn(-c3ccn[nH]3)c2n1 (stereo unspecified) + COC1C(OC(N)=O)C(O)C(Oc2ccc3c(O)c(NC(=O)c4ccc(O)c(CC=C(C)C)c4)c(=O)oc3c2C)OC1(C)C"
subjectoftest = "889142-216-R-J1-PDC complex spheroid viability"
category = "1 (yes)"

